# target of assay: T1, Rhesus GIPR (rhesus, UniProt F7E1R9 22-466)
# T1 sequence: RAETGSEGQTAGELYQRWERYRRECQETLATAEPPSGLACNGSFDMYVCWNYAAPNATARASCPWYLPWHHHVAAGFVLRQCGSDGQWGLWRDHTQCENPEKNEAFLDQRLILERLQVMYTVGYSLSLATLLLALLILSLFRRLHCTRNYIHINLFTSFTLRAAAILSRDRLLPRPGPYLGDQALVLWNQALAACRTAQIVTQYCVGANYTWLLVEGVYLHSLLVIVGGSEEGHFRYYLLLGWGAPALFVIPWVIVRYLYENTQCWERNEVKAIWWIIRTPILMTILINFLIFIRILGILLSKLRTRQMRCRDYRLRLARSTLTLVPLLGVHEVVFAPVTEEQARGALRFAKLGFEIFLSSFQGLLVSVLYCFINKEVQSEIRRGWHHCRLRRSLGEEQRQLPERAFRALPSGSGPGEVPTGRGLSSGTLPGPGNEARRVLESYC
# test protocol: cell-based or functional assay
measured endpoint: Rhesus GIPR CAMP Assay (Conc. mAb @ 60% Inhibition in nM)
Give just the numeric value; nM need not be written.

binder	recorded number
18F2.007 (antibody, human IgG1, kappa, N297G, V domains shown) VH: QVQLVESGGGVVQPGRSLRLSCAASGFTFSNFGMHWVRQAPGKGLEWVAVIWYDASNENYADAVKGRFTISRDNSKNTLYLHMNSLRAADTAVYYCARDGTIFGVVLGDYWGQGTLVTVSS VL: DIQMTQSPSSLSASIGDRVTITCRASQDLRNYLGWYHQKPGKAPKLLIYGASSLQSGVPSRFSGSGSGTEFTLTISSLQPEDFATYYCLQHNNYPFTFGPGTKVDIKR	1.94
2F11.006 (antibody, human IgG1, kappa, N297G, V domains shown) VH: QVQLVESGGGVVQPGRSLRLSCAASGFTFSSYGMHWVRQAPGKGLEWVAVIWYDASNKYYADAVKGRFTISSDNSKNTLYLQMNSLRAEDTAVYYCARDRTIFGVVLDYWGQGTLVTVSS VL: DIQMTQSPSSLSASVGDRVTITCQASQDISNYLNWYQQKPGKAPKLLIYDASNLETGVPSRFSGSGSGTDFSLTISSLQPEDIATYYCQQYDILLTFGGGTKVEIKR	1.3

Shift focus to the following entry.
Data request, read-out Rhesus GIPR CAMP Assay (Conc. mAb @ 60% Inhibition in nM), for 17B11.002.008 (antibody, human IgG1, lambda, N297G, V domains shown) VH: QMQLVQSGAEVKKPGASVKVSCKASGYTFTSYDINWVRQAPGQGLEWMGWMNPNSGGTGYAQKFQGRVTMTRDTSISTAYMELSSLRSDDTAVYYCARGGDYVFGSYRPYYYYYGMDVWGQGTTVTVSS VL: QSVLTQPPSVSAAPGQKVTISCSGSSSNIGNNYVSWYQQLPGTAPKLLIYDNNKRPSGIPDRFSGSKSGTSATLAITGLQTGDEADYYCGTFESSLSAVVFGGGTKLTVLG
7.89
